PROTOCOL DETAILS: Time-dependent distribution of apocynin in plasma, urine and tissues after iv bolus injection (HPLC-MS/MS)
Assay type: in vivo, mouse
RECORDED CONDITIONS: male, mouse, plasma; CD1 mice, iv bolus 5 mg/kg, 30 minutes; read-out: plasma apocynin concentration
READOUT: concentration at 30 min

>  <COMPOUND>
COc1cc(C(C)=O)ccc1O [Apocynin, 4‐hydroxy‐3‐methoxyacetophenone]

>  <READOUT>
concentration at 30 min

>  <MEASURED>
~10 ng/mL

$$$$

----------
PROTOCOL DETAILS: LogBB calculation, Log (Cbrain/Cplasma)
Assay type: in vivo, mouse
RECORDED CONDITIONS: male, CD1, mouse, brain/plasma, 5 mg/kg; at 30 minutes after iv injection

>  <COMPOUND>
COc1cc(C(C)=O)ccc1O [Apocynin, 4‐hydroxy‐3‐methoxyacetophenone]

>  <LogBB at 30 min>
1

$$$$

----------
PROTOCOL DETAILS: PK simulation and model analysis using Phoenix WinNonlin 8.1 (non-compartmental and compartmental)
Format: in vivo
RECORDED CONDITIONS: male, CD1, mouse, plasma, iv, 5 mg/kg, 2-CA, 0-6 h; read-out: tvCL1 (typical value of compartmental clearance) (converted)

>  <COMPOUND>
COc1cc(C(C)=O)ccc1O [Apocynin, 4‐hydroxy‐3‐methoxyacetophenone]

>  <clearance, mL/min>
92.3

$$$$

----------
PROTOCOL DETAILS: PK simulation and model analysis using Phoenix WinNonlin 8.1 (non-compartmental and compartmental)
Type: in vivo
RECORDED CONDITIONS: CD1, mouse, plasma; NCA, iv 5 mg/kg, n = 3; read-out: t 1/2 (terminal half-life, plasma) (converted)

>  <COMPOUND>
COc1cc(C(C)=O)ccc1O [Apocynin, 4‐hydroxy‐3‐methoxyacetophenone]

>  <UNIT DESCRIPTOR>
min

>  <half-life>
3

$$$$

----------
PROTOCOL DETAILS: PK simulation and model analysis using Phoenix WinNonlin 8.1 (non-compartmental and compartmental)
Type: in vivo
RECORDED CONDITIONS: male, CD1, mouse, plasma, iv, 5 mg/kg, NCA, iv 5 mg/kg, n = 3; read-out: CL (clearance) (converted)

>  <COMPOUND>
COc1cc(C(C)=O)ccc1O [Apocynin, 4‐hydroxy‐3‐methoxyacetophenone]

>  <clearance>
129 mL/min/kg

$$$$

----------
PROTOCOL DETAILS: Apocynin in organs after 16 weeks in drinking water, HFD mouse model (HPLC-MS/MS)
Format: in vivo
RECORDED CONDITIONS: male, liver, oral, C57BL/6J mice, HFD 16 weeks, apocynin 5 mmol/L in drinking water, read-out: liver apocynin concentration at end of treatment
READOUT: concentration at 16 weeks (ng/g)

>  <MOLECULE>
COc1cc(C(C)=O)ccc1O [Apocynin, 4‐hydroxy‐3‐methoxyacetophenone]

>  <MEASURED>
4820

$$$$

----------
PROTOCOL DETAILS: PK simulation and model analysis using Phoenix WinNonlin 8.1 (non-compartmental and compartmental)
Format: in vivo
RECORDED CONDITIONS: male, CD1, mouse, plasma, iv, 5 mg/kg, NCA, iv 5 mg/kg; read-out: CL (systemic clearance) (converted)

>  <COMPOUND>
COc1cc(C(C)=O)ccc1O [Apocynin, 4‐hydroxy‐3‐methoxyacetophenone]

>  <clearance [mL/min/kg]>
129

$$$$
